The measured values listed here are drawn from patent US20260242478A1.

Target: T1, Anti-CD28 Fab (SEQ ID NOs: 696, 697)
T1 construct: The Fab was biotinylated and captured on neutravidin coated plates in the phage ELISA
T1 sequence (VH, as listed by the source, chain 1 of 2): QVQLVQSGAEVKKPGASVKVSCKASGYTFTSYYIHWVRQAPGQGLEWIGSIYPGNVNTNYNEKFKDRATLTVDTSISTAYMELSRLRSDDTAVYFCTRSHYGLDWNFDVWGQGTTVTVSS
T1 sequence (VL, as listed by the source, chain 2 of 2): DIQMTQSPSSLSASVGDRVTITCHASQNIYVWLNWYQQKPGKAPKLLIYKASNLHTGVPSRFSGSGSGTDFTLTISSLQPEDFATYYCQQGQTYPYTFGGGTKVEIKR
Assay: phage binding ELISA on anti-CD28 Fab plate; competitor: CD28 antigen pre-incubated in the wells
For each of the binders below, state its Anti-CD28 Fab signal in the presence of CD28.
Give bare numbers.

Sample answers from the record:
{"Binder": "YCDGHLKEYQEKCL (Tested as clonal phage supernatant) [Phage-749]", "Data value": 0.09}
{"Binder": "YCDGHSQEYMWKCL (Tested as clonal phage supernatant) [Phage-755]", "Data value": 0.09}
{"Binder": "YCAGHLEEYMDKCL (Tested as clonal phage supernatant) [Phage-761]", "Data value": 0.06}
{"Binder": "YCEGHLAVYMQKCL (Tested as clonal phage supernatant) [Phage-751]", "Data value": 0.1}
{"Binder": "YCDGHVEEYLYKCL (Tested as clonal phage supernatant) [Phage-760]", "Data value": 0.06}
{"Binder": "YCDGHEPQYLEKCL (Tested as clonal phage supernatant) [Phage-758]", "Data value": 0.08}
{"Binder": "YCDGHAEEYMSKCL (Tested as clonal phage supernatant) [Phage-759]", "Data value": 0.09}

The record that follows has no Anti-CD28 Fab signal in the presence of CD28 shown yet.
Query :: Looking for the measured Anti-CD28 Fab signal in the presence of CD28 of YCEGHSEEYMSKCL (Tested as clonal phage supernatant) [Phage-754] , can you help?
Result :: 0.07
